Molecular target: Human GLP-1 receptor stably expressing cells (hGLP-1R/CHO-K1 cells) (Homo sapiens)
Assay: Measurement of GLP-1 receptor agonist activity (cAMP assay)
Details: increase in cAMP concentration in hGLP-1R/CHO-K1 cells, 37° C. 1 hour
Description: Test Example 1: Measurement of GLP-1 Receptor Agonist Activity Human GLP-1 receptor stably expressing cells (hGLP-1R/CHO-K1 cells) are cultured in an a-MEM medium (Sigma) containing 10% FBS (Hyclone), 2% GlutaMAX (Gibco), 1% G418 (Nacalai Tesque), and 1% Penicillin-Streptomycin Mixed Solution (Sigma) at 37° C. under 5% CO2 conditions, and recovered by treating a 10 fold diluted 5.0 g/1-trypsin/5.3 mmol/1-EDTA solution (Nacalai Tesque) and cryopreserved. […]
Quantity name: EC50 (nM)

1) C[C@H]1c2nc(OCc3ccc(Cl)cc3F)c(C(F)(F)F)cc2CCN1Cc1nc2c(-c3ccn(C)n3)cc(C(=O)O)cc2n1C[C@@H]1CCO1 :: 0.345

(A) C[C@H]1c2cc(OCc3c(F)cc(F)cc3F)c(C(F)F)cc2CCN1Cc1nc2ccc(C(=O)O)cc2n1C[C@@H]1CCO1
(B) C[C@H]1c2nc(NCc3ccc(Cl)cc3)c(C(F)(F)F)cc2CCN1Cc1nc2c(Cl)cc(C(=O)O)cc2n1C[C@@H]1CCO1
Higher EC50: A or B ? // output: label of the selected item
A

---

Molecular target: Human GLP-1 receptor stably expressing cells (hGLP-1R/CHO-K1 cells) (Homo sapiens)
Construct: expressed in transfected cells
Assay: Measurement of GLP-1 receptor agonist activity (cAMP assay)
Type: cell-based
Conditions: CHO-K1, maximum effect; cAMP with 2 nM human GLP-1 (7-36) = 100%, DMSO only = 0%; read-out: Emax
Quantity name: Emax (%)

1. C[C@H]1c2nc(NCc3cc(F)c(Cl)cc3F)c(C(F)(F)F)cc2CCN1Cc1nc2c(Cl)cc(C(=O)O)cc2n1C[C@@H]1CCO1 :: 112
2. C[C@H]1c2nc(OCc3ccc(Cl)cc3)c(C(F)F)cc2CCN1Cc1nc2c(F)cc(C(=O)O)cc2n1C[C@@H]1CCO1 :: 112
3. C[C@H]1c2nc(OCc3ccc(Cl)cc3)c(C#N)cc2CCN1Cc1nc2c(Cl)cc(C(=O)O)cc2n1C[C@@H]1CCO1 :: 124
4. C[C@H]1c2nc(NCc3ncc(Cl)cc3F)c(C(F)(F)F)cc2CCN1Cc1nc2c(F)cc(C(=O)O)cc2n1C[C@@H]1CCO1 :: 114
5. C[C@H]1c2nc(OCc3ccc(C#N)cc3F)c(C(F)F)cc2CCN1Cc1nc2c(F)cc(C(=O)O)cc2n1C[C@@H]1CCO1 :: 113
6. CC1c2nc(OCc3ccc(Cl)cc3F)ncc2CCN1Cc1nc2ccc(C(=O)O)cc2n1C[C@@H]1CCO1 (stereo partly shown) :: 96
7. C[C@H]1c2nc(OCc3ccc(Cl)cc3F)c(C(F)F)cc2CCN1Cc1nc2ccc(C(=O)O)c(F)c2n1C[C@@H]1CCO1 :: 122
8. C[C@H]1c2nc(OCc3ccc(Cl)cc3F)c(C(F)(F)F)cc2CCN1Cc1nc2c(-c3ccn(C)n3)cc(C(=O)O)cc2n1C[C@@H]1CCO1 :: 102
9. C[C@H]1c2nc(OCc3ccc(F)cc3F)c(C(F)F)cc2CCN1Cc1nc2c(F)cc(C(=O)O)cc2n1C[C@@H]1CCO1 :: 113
10. C[C@H]1c2cc(OCc3ccc(Cl)cn3)c(C(F)F)cc2CCN1Cc1nc2ccc(C(=O)O)cc2n1C[C@@H]1CCO1 :: 102
11. COc1cc(C(=O)O)cc2c1nc(CN1CCc3cc(C(F)(F)F)c(NCc4c(F)cc(Cl)cc4F)nc3[C@@H]1C)n2C[C@@H]1CCO1 :: 124
12. C[C@H]1c2nc(OCc3ccc(Cl)cc3Cl)c(Cl)cc2CCN1Cc1nc2c(F)cc(C(=O)O)cc2n1C[C@@H]1CCO1 :: 94.7
13. C[C@H]1c2nc(OCc3ccc(Cl)cc3F)c(C(F)(F)F)cc2CCN1Cc1nc2sc(C(=O)O)cc2n1C[C@@H]1CCO1 :: 112
14. C[C@@H]1c2nc(OCc3ccc(Cl)cc3F)ncc2CCN1Cc1nc2ccc(C(=O)O)cc2n1C[C@@H]1CCO1 :: 75.7
15. C[C@H]1c2nc(OCc3ccc(Cl)cc3Cl)c(Cl)cc2CCN1Cc1nc2ccc(C(=O)O)cc2n1C[C@@H]1CCO1 :: 135
16. C[C@H]1c2nc(OCc3cc(F)c(Cl)cc3F)c(Cl)cc2CCN1Cc1nc2ccc(C(=O)O)nc2n1C[C@@H]1CCO1 :: 118
17. C[C@H]1c2nc(NCc3ccc(Cl)cn3)c(C(F)(F)F)cc2CCN1Cc1nc2c(F)cc(C(=O)O)cc2n1C[C@@H]1CCO1 :: 108
18. C[C@H]1c2nc(OCc3ccc(F)cc3F)c(C(F)F)cc2CCN1Cc1nc2ccc(C(=O)O)cc2n1C[C@@H]1CCO1 :: 108
19. C[C@H]1c2nc(OCc3ccc(Cl)cc3F)c(C#N)cc2CCN1Cc1nc2ccc(C(=O)O)c(F)c2n1C[C@@H]1CCO1 :: 136
20. COc1cc(C(=O)O)cc2c1nc(CN1CCc3cc(C#N)c(OCc4ccc(Cl)cn4)nc3[C@@H]1C)n2C[C@@H]1CCO1 :: 128
21. C[C@H]1c2nc(OCc3ccc(Cl)cc3F)c(C(F)(F)F)cc2CCN1Cc1nc2c(-c3cccnc3)cc(C(=O)O)cc2n1C[C@@H]1CCO1 :: 93.3
22. C[C@H]1c2nc(OCc3c(F)cc(F)cc3F)c(C(F)F)cc2CCN1Cc1nc2ccc(C(=O)O)c(F)c2n1C[C@@H]1CCO1 :: 123
23. C[C@H]1c2nc(OCc3ccc(Cl)cc3Cl)c(C(F)F)cc2CCN1Cc1nc2ccc(C(=O)O)cc2n1C[C@@H]1CCO1 :: 86.7
24. C[C@H]1c2nc(NCc3ccc(Cl)cc3F)c(C(F)(F)F)cc2CCN1Cc1nc2ccc(C(=O)O)cc2n1C[C@@H]1CCO1 :: 103
25. C[C@H]1c2nc(SCc3ccc(Cl)cc3F)c(C(F)(F)F)cc2CCN1Cc1nc2ccc(C(=O)O)cc2n1C[C@@H]1CCO1 :: 103

---

Target: Human GLP-1 receptor stably expressing cells (hGLP-1R/CHO-K1 cells) (Homo sapiens, UniProt P43220)
Construct: expressed in transfected cells
Sequence (P43220 24-463): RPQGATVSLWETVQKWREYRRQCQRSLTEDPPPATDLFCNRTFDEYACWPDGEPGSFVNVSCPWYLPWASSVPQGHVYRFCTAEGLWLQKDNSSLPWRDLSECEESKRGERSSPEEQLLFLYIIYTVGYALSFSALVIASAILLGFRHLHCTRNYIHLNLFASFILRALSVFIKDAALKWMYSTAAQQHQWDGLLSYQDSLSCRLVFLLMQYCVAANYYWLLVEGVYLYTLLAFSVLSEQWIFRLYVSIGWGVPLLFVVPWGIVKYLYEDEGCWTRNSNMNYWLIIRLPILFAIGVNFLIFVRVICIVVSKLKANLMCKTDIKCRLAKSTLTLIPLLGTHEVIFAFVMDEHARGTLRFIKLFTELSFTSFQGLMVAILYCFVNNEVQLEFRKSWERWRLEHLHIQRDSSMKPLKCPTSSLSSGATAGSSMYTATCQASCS
Assay: Measurement of GLP-1 receptor agonist activity (cAMP assay)
Format: cell-based
Details: CHO-K1, maximum effect; cAMP with 2 nM human GLP-1 (7-36) = 100%, DMSO only = 0%; read-out: Emax
Quantity name: Emax (%)

1. C[C@H]1c2nc(OCc3ccc(Cl)cc3F)c(C(F)F)cc2CCN1Cc1nc2ccc(C(=O)O)nc2n1C[C@@H]1CCO1 [Compound I-097] :: 109
2. C[C@H]1c2nc(OCc3c(F)cc(Cl)cc3F)c(C(F)F)cc2CCN1Cc1nc2c(F)cc(C(=O)O)cc2n1C[C@@H]1CCO1 [Compound I-113] :: 116
3. C[C@H]1c2nc(NCc3ccc(Cl)cc3F)c(C(F)(F)F)cc2CCN1Cc1nc2c(Cl)cc(C(=O)O)cc2n1C[C@@H]1CCO1 [Compound I-151] :: 92.7
4. C[C@H]1c2nc(OCc3ccc(F)cc3F)c(Cl)cc2CCN1Cc1nc2c(F)cc(C(=O)O)cc2n1C[C@@H]1CCO1 [Compound I-083] :: 116
5. C[C@H]1c2nc(OCc3ccc(F)cc3F)c(Cl)cc2CCN1Cc1nc2ccc(C(=O)O)nc2n1C[C@@H]1CCO1 [Compound I-029] :: 105
6. C[C@H]1c2nc(OCc3ccc(Cl)cc3F)c(Cl)cc2CCN1Cc1nc2c(F)cc(C(=O)O)cc2n1C[C@@H]1CCO1 [Compound I-089] :: 106

---

Target: Human GLP-1 receptor stably expressing cells (hGLP-1R/CHO-K1 cells) (Homo sapiens, UniProt P43220)
Construct: expressed in transfected cells
Assay: Measurement of GLP-1 receptor agonist activity (cAMP assay)
Type: cell-based
Details: CHO-K1, maximum effect; cAMP with 2 nM human GLP-1 (7-36) = 100%, DMSO only = 0%; read-out: Emax
Quantity name: Emax (%)

1. C[C@H]1c2c(ccc3c2OC(C)(c2ccc(Cl)cc2F)O3)CCN1Cc1nc2ccc(C(=O)O)cc2n1C[C@@H]1CCO1 (some centres unmarked) :: 91.7
2. Cc1cc2c(nc1OCc1ccc(Cl)cc1F)[C@H](C)N(Cc1nc3ccc(C(=O)O)cc3n1C[C@@H]1CCO1)CC2 :: 109
3. C[C@H]1c2nc(OCc3ccc(F)cc3F)c(Cl)cc2CCN1Cc1nc2ccc(C(=O)O)c(F)c2n1C[C@@H]1CCO1 :: 122
4. C[C@H]1c2nc(OCc3cc(F)c(Cl)cc3F)c(C(F)F)cc2CCN1Cc1nc2ccc(C(=O)O)nc2n1C[C@@H]1CCO1 :: 117
5. C[C@H]1c2nc(OCc3cc(F)c(Cl)cc3F)c(Cl)cc2CCN1Cc1nc2ccc(C(=O)O)c(F)c2n1C[C@@H]1CCO1 :: 129
6. C[C@H]1c2c(cc(Cl)c3c2OC(C)(c2ccc(Cl)cc2F)O3)CCN1Cc1nc2ccc(C(=O)O)cc2n1C[C@@H]1CCO1 (some centres unmarked) :: 98
7. C[C@H]1c2nc(OCc3ccc(Cl)cc3F)c(C(F)(F)F)nc2CCN1Cc1nc2ccc(C(=O)O)cc2n1C[C@@H]1CCO1 :: 96.3
8. C[C@H]1c2nc(OCc3c(F)cc(Cl)cc3F)c(Cl)cc2CCN1Cc1nc2ccc(C(=O)O)cc2n1C[C@@H]1CCO1 :: 124
